System: Enterovirus A71
experiment-description: Antiviral activity against 1 MOI EV71 infected in human RD cells assessed as inhibition of viral plaque formation 16 hrs by plaque formation assay
Format: functional, organism-based
experimental-setup: Enterovirus A
property-measured: EC50 (nM)

- compound: "Cc1ccsc1C(c1ccccc1Br)N1CCN(c2ncnc3c2cnn3-c2ccccc2)CC1 (stereo unspecified)"
  property-measured: "EC50"
  unit-string: "nM"
  meas-value: 160

----------
Tested on: Enterovirus A71
experiment-description: Antiviral activity against 0.001 PFU/cell EV71 TW/2231/98 infected in human RD cells assessed as inhibition of viral plaque formation after 10 passages by plaque formation assay
Type: functional, organism-based
experimental-setup: Enterovirus A, TW/2231/98, RD

- compound: "Cc1ccsc1C(c1ccccc1Br)N1CCN(c2ncnc3c2cnn3-c2ccccc2)CC1 (stereo unspecified)"
  EC50: "> 25 µM"
